# Assayed system: trypanothione reductase (TR; LiTR) (Leishmania infantum)
# Construct: Full-length LiTR with carboxy-terminal six-histidine tag (LiTR.6His), expressed in E. coli
# Sequence (A4HSF7 1-491): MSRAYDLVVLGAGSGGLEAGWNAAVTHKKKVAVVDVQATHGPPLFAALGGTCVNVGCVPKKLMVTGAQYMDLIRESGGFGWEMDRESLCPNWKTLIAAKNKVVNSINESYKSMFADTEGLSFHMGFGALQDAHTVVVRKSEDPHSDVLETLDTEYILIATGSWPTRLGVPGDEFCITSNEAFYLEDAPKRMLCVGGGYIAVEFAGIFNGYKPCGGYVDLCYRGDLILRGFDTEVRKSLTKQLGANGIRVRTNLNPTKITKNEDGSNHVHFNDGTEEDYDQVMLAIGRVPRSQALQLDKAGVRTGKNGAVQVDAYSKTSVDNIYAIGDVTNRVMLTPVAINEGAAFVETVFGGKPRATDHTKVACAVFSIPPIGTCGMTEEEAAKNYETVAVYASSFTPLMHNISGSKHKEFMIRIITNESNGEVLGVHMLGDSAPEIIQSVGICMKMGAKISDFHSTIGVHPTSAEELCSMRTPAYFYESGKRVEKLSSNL
# Protocol summary: DTNB-coupled trypanothione reductase assay with purified recombinant enzyme; Lineweaver-Burk and Dixon plot analysis (IC50 […] also reported)
pKi: −log10 of the molar value.
Property: pKi

- Compound: "O=C(O[C@@H]1Cc2c(O)cc(O)cc2O[C@@H]1c1cc(O)c(O)c(O)c1)c1cc(O)c(O)c(O)c1 [(-)-Epigallocatechin 3-O-gallate]"
  Property: "pKi"
  Obs value: 3.53
